- System: Wolbachia pipientis
- METHOD: Anti-Wolbachia Cell-Based Screen
- Type: functional
- Set-up: scale not given: in the data most compounds retested in dose-response had high values
- TEST CONDITIONS: 5 µM
In all, about 48,000 compounds went through this assay and about 13,000 (27%) showed an effect of 50% or more. The list shows a part of the results.
MEASURE: Percent Effect (%)
Numbers only, in %.

For orientation, consider the following solved cases.
Q: Recorded Percent Effect of CCc1nc(C2CCCN(C(=O)c3ccc(OC(C)C)nc3)C2)no1 (stereo not given) , please.
Ans: 4.592

Q: Repeat with CCc1nc(C2CCCN(C(=O)c3ccc(Cl)cc3)C2)no1 (stereo not given)
Ans: 149.4

Q: // query: `Cc1oncc1C(=O)N1CCC2(CC1)CC(N1CCOCC1)C2.O=C(O)C(F)(F)F`
Ans: 99.49

Batch request: Percent Effect for each of the following molecules.
1. COc1cc(N2CCC3(CC2)CC(N2CCOCC2)C3)ncn1.O=C(O)C(F)(F)F
2. CC1=N[C@@]2(CC[C@@H]3CN(C(=O)NC(C)C)C[C@@H]32)C(=O)N1CC1CC1
3. CN(CCc1cccs1)C(=O)Nc1ccc2c(c1)C(=O)N(C)CC2
4. O=C(O)C(F)(F)F.O=C([C@H]1CC[C@@H]2[C@@H](CCN2C2CCOCC2)O1)N1CCOCC1
5. COCCN1C(=O)[C@]2(CC[C@@H]3CN(C(=O)NC(C)C)C[C@@H]32)N=C1C
6. CC1=N[C@@]2(CC[C@@H]3CN(S(=O)(=O)CC(C)C)C[C@@H]32)C(=O)N1C
7. Cc1nc(C)n(CC2CCCN2CC(=O)NCc2ccco2)n1 (stereo not given)

Ans:
1: -37.73; 2: 1.3; 3: -32.58; 4: 111.7; 5: 32.84; 6: 16.54; 7: -10.96

----------
- Tested on: Wolbachia pipientis
- METHOD: Anti-Wolbachia Cell-Based Screen
- Assay type: functional
- Set-up: scale not given: in the data most compounds retested in dose-response had high values
- TEST CONDITIONS: 5 µM
Screen size: about 48,000 compounds; about 13,000 (27%) showed an effect of 50% or more. The list shows a part of the results.
MEASURE: Percent Effect (%)
One number for each entry, in %.

Q: Percent Effect lookup needed for `CN(C)[C@@H]1CCN(S(=O)(=O)C2CC2)[C@H]1Cc1ccccc1.O=C(O)C(F)(F)F` , thanks.
Ans: 106

Please give Percent Effect for each item listed below.
1. O=C(Cc1csc(N2CCNC2=O)n1)NC1(c2ccccc2)CCC1
2. CC1=N[C@@]2(CC[C@@H]3CN(Cc4ccccc4F)C[C@@H]32)C(=O)N1CC1CC1.O=C(O)C(F)(F)F

Ans:
1. 3.065
2. -0.009519

Can you give me Percent Effect for all of these, one by one?
1. CC1=N[C@@]2(CC[C@@H]3CN(Cc4ccccc4C)C[C@@H]32)C(=O)N1CC1CC1.O=C(O)C(F)(F)F
2. CC1=N[C@@]2(CC[C@@H]3CN(CC(C)C)C[C@@H]32)C(=O)N1CC(C)C.O=C(O)C(F)(F)F
3. CC1=N[C@@]2(CC[C@@H]3CN(CC4CC4)C[C@@H]32)C(=O)N1CC1CC1.O=C(O)C(F)(F)F

Ans:
1. 101.1
2. 10.27
3. 106.2

Give Percent Effect for each listed item.
1. CN(C)[C@@H]1CCN(S(=O)(=O)c2cn(C)cn2)[C@H]1Cc1cccnc1.O=C(O)C(F)(F)F.O=C(O)C(F)(F)F.O=C(O)C(F)(F)F
2. CN(C)[C@@H]1CCN(c2ncc(F)cn2)[C@H]1Cc1ccccc1.O=C(O)C(F)(F)F.O=C(O)C(F)(F)F

Ans:
[0.7375, 3.414]

----------
- Test system: Wolbachia pipientis
- METHOD: Anti-Wolbachia Cell-Based Screen
- Assay type: functional
- Design: scale not given: in the data most compounds retested in dose-response had high values
- TEST CONDITIONS: 5 µM
Screen size: about 48,000 compounds; about 13,000 (27%) showed an effect of 50% or more. The list shows a part of the results.
Assignment: determine reported Percent Effect for the given compounds.
One number for each entry, in %.

Q: Given the entry `CCc1nc(CN2CCCN(C(=O)C3CCC3)CC2)cs1` , report its measured Percent Effect.
Ans: 7.838

Q: What do you get for `COc1nn(C)c2c1CCCN(C(=O)c1cscn1)C2` ?
Ans: 93.39

Q: Also, `Cc1cc(C)c2c(N3CCCN(C(=O)C4CCC4)CC3)ncnc2n1` please.
Ans: 89.28

List reported Percent Effect for each of these compounds:
1. Cn1nc(C#N)c2c1CN(C(=O)c1nc[nH]n1)CCC2
2. Cc1cc(C)c2c(N3CCN(CCN4CCOCC4)CC3)ncnc2n1
3. CC(C)c1cc(C(=O)NCCn2nnc3ccccc32)no1
4. Cc1nccn1CCN(C)c1nc(-c2cccnc2)nc2c1CCNC2
5. CC(=O)N1CCc2c(nc(-c3cccnc3)nc2N(C)CC(O)CO)C1 (stereo unspecified)

Ans:
1. -49.74
2. 8.578
3. -3.58
4. 2.372
5. -2.171

Quick one: give me Percent Effect for each item below, same order please.
1. Cc1ccsc1CN(CCN(C)C)C(=O)c1cc2ccccc2[nH]1
2. CN(Cc1nc(-c2ccccc2)c[nH]1)C(=O)NCC(=O)NC(C)(C)C
3. O=C(CSc1ccc2c(c1)OCCO2)NS(=O)(=O)C1CCCCC1
4. CC(C)Nc1nc2c(c(N(C)C)n1)CCN(C(=O)c1cc[nH]n1)CC2

Ans:
-9.122
-12.98
-3.835
-2.807

----------
- System: Wolbachia pipientis
- METHOD: Anti-Wolbachia Cell-Based Screen
- Type: functional
- Set-up: scale not given: in the data most compounds retested in dose-response had high values
- TEST CONDITIONS: 5 µM
About 13,000 (27%) of roughly 48,000 compounds showed an effect of 50% or more. The list shows a part of the results.
Please go through the items and note down their Percent Effect.

Q: What value of measured Percent Effect is listed for Cn1cc(CCNC(=O)N2CCCC(c3nncn3C)C2)cn1 (stereo not given) ?
Ans: 107%

Q: Now give it for `Cn1cc(CN2CCc3c(COCc4ccncc4)cncc3C2)cn1` too.
Ans: 11%

Q: What would you report for `CC(=O)N1CCCN(C(=O)NCCCc2cn[nH]c2C)CC1` ?
Ans: 5.241%

Could you report Percent Effect for every entry in the following list?
1. O=C(O)C(F)(F)F.c1ccc(CN2Cc3[nH]nc(COCC4CC4)c3C2)nc1
2. COc1ccc(CC(=O)N2CCCC(c3nncn3C)C2)cc1 (stereo not given)

Ans:
["-4.447%", "-3.253%"]

----------
- System: Wolbachia pipientis
- METHOD: Anti-Wolbachia Cell-Based Screen
- Format: functional
- Set-up: scale not given: in the data most compounds retested in dose-response had high values
- TEST CONDITIONS: 5 µM
The campaign covered roughly 48,000 compounds. About 13,000 (27%) showed an effect of 50% or more. Some of the results follow.
I'd be grateful if you could share measured Percent Effect for these entries.

Recorded results for 3 compounds are shown here.
Q: // lookup Percent Effect for `NC(=O)CN1CCC(c2cccc(Oc3ccccc3)n2)CC1`
Ans: 173%

Q: `CC(=O)N1CCC(c2cccc(Oc3ccccc3)n2)CC1` , same question.
Ans: 144.2%

Q: And then Cc1cc(CN(C)CC2CC(C3CCCCC3)=NO2)no1 (centres undefined) , what is it?
Ans: 7.354%

Now consider a different compound.
Q: Recorded Percent Effect of `COCCOc1ccc(NC(=O)N(CCCO)CC(C)(C)C)cn1` , please.
Ans: 7.116%

----------
Kindly state Percent Effect for each of the entries shown.
- System: Wolbachia pipientis
- METHOD: Anti-Wolbachia Cell-Based Screen
- Format: functional
- Set-up: scale not given: in the data most compounds retested in dose-response had high values
- TEST CONDITIONS: 5 µM
About 13,000 (27%) of roughly 48,000 compounds showed an effect of 50% or more. This is one part of the list.
Answers are plain numbers, in %.

Would you please look over these solved cases?
Q: Would you kindly share the measured Percent Effect for O=C(O)C(c1ccc(O)cc1)N1CCC(N2CCSCC2)CC1 (stereo not given) ?
Ans: 107.3

Q: Now consider `COc1ccc(CNC(=O)CCSCc2csc(C)n2)cn1` and answer again.
Ans: 99.67

Q: Similarly, `O=C(O)C(F)(F)F.O=C(c1ccccc1)N1C[C@H]2CCC[C@@]2(COCc2ccncc2)C1` ?
Ans: 12.44

For each listed entry, give its Percent Effect.
1. O=C(O)C(c1cccc2c1OCC2)N1CCC(N2CCSCC2)CC1 (stereo not given)
2. COCCN1CCC2(COCCN(C(=O)Cc3cccs3)C2)C1.O=C(O)C(F)(F)F (stereo not given)

Ans:
1. 4.197
2. 3.842

Batch lookup, Percent Effect per entry.
1. Cc1nc(CNC(=O)NCCc2ccc(N(C)C)cc2)cs1
2. O=C(O)C(F)(F)F.O=C(c1ncccn1)N1C[C@H]2CCC[C@@]2(COCc2ccncc2)C1
3. Fc1ccc(-c2nnc(CN3CCOC(Cn4cncn4)C3)o2)cc1 (stereo not given)
4. CCC(CNC(=O)COC)Oc1cccc(F)c1 (stereo not given)
5. Cc1cccc(S(=O)(=O)NCC2CCN(c3cnccn3)CC2)c1
6. Cl.O=C(NCCn1nc(C2CCNC2)c2cccnc21)C1CCC1 (stereo not given)
7. O=S(=O)(NCC1CCN(c2ccccn2)CC1)c1ccccc1F

Ans:
1. 2.73
2. 6.096
3. -1.88
4. -17.35
5. 113.6
6. 119.3
7. -4.881

Here are 3 molecules. What values of Percent Effect were reported for them?
1. CCN(CC)CC[C@H]1CN(C(=O)C(C)(C)C)CC[C@H]1CC(=O)O
2. CN(C)C(=O)CN1CCN(Cc2coc(-c3cccc(F)c3)n2)CC1
3. CSC(C)C(=O)NCc1ccc(-n2cncn2)nc1 (stereo not given)

Ans:
[-8.739, 102.1, -9.599]

Each of the following entries comes with a recorded value; kindly state Percent Effect for each.
1. Cl.O=C(NCCn1nc(C2CCNC2)c2cccnc21)C1CC1 (stereo not given)
2. Cc1ccc(CNC(=O)CCSCc2csc(C)n2)cn1
3. CS(=O)(=O)CC(=O)N1C[C@H]2CCC[C@@]2(COCc2ccncc2)C1.O=C(O)C(F)(F)F

Ans:
[104.4, -0.6284, 108.3]

Your task in this section: give Percent Effect for each listed record.
1. COc1ccc(C(=O)NC[C@H]2COCc3nc4cc(C)ccc4n32)cc1
2. COCC(=O)N1CCCC2(COCCN(CCN(C)C)C2)C1.O=C(O)C(F)(F)F.O=C(O)C(F)(F)F (stereo not given)
3. C[C@@H](NC(=O)c1cccn1C)c1c(-c2ccc(Cl)cc2)noc1C(=O)O
4. Cc1cc(N2CCCN(C(C(=O)O)c3cccc(C)c3F)CC2)ccn1 (stereo not given)
5. Cc1nc(CCNC(=O)NCc2cccc(N(C)C)n2)cs1

Ans:
1: -9.863; 2: -43.45; 3: 1.666; 4: 1.101; 5: 98.24

Give Percent Effect for each listed item.
1. O=C(O)CCc1cc2n(n1)CCCN(C(=O)c1ccc(Cl)s1)C2
2. COCCC(=O)N1CCC2(CCN(Cc3ccc(C)cc3)CC2)C1.O=C(O)C(F)(F)F
3. CC(=O)N1CCC(n2nccc2-c2cnc(NCCO)nc2)CC1

Ans:
1. -14.6
2. -24.32
3. 90.32

Record Percent Effect for all entries; do not skip any.
1. Cc1nc(CSCCC(=O)NCC(=O)NC(C)C)cs1
2. CC(CO)(NC(=O)Nc1nnc(C2CC2)s1)C1CCCCC1 (stereo not given)
3. COCCOCCNS(=O)(=O)C1CS(=O)(=O)c2ccccc21 (stereo not given)
4. CN(C)CC(=O)N1C[C@H]2CCC[C@@]2(COc2ccccn2)C1.O=C(O)C(F)(F)F
5. NC(=O)CN1CCC(NC2CCCCc3ccccc32)CC1 (stereo not given)
6. Cc1ccoc1-c1nnc(CN2CCCC(Cn3cncn3)C2)o1 (stereo not given)
7. COc1cccc(COCC(=O)N2CCC(CC(N)=O)CC2)c1

Ans:
3.002
-9.055
2.377
-2.413
-5.758
-5.411
-12.19

// for each molecule below, give its Percent Effect
1. O=S(=O)(NCC1CCN(c2cnccn2)CC1)c1ccc(F)c(Cl)c1
2. CC(=O)N1CCC2(CC1)CN(C)CC[C@H]2C(F)(F)F.Cl
3. N#Cc1cccc(OC2CCN(C(=O)c3cncc(O)c3)CC2)c1

Ans:
[114.1, -1.973, -9.362]

Recorded values, source ChEMBL document CHEMBL3988442.
